These data points were gathered from patent US4943595A.

test: Vapor pressure of the perfluorochemical; settings: 37.5° C.
Vapor pressure overview

- FC(F)(F)C(F)(F)C(F)(F)C(F)(F)OC(F)(C(F)(F)C(F)(F)F)C(F)(C(F)(F)F)C(F)(F)F (centres unmarked): 11-13 mmHg
- FC(F)(F)C(F)(F)C(F)(OC(F)(C(F)(F)F)C(F)(F)F)C(F)(C(F)(F)F)C(F)(F)F (centres unmarked): 35-36 mmHg

Problem: Name the reported Vapor pressure value associated with the compound FC(F)(F)C(F)(F)C(F)(OC(F)(F)C(F)(C(F)(F)F)C(F)(F)F)C(F)(C(F)(F)F)C(F)(F)F (centres unmarked)
Result: 14-15 mmHg

Problem: Name the reported Vapor pressure value associated with the compound FC(F)(F)C(F)(F)C(F)(OC(F)(F)C(F)(F)C(F)(C(F)(F)F)C(F)(F)F)C(F)(C(F)(F)F)C(F)(F)F (centres unmarked)
Result: 8-9 mmHg

Problem: Name the reported Vapor pressure value associated with the compound FC(F)(F)C(F)(F)C(F)(OC(F)(C(F)(F)C(F)(F)F)C(F)(C(F)(F)F)C(F)(F)F)C(F)(F)F (centres unmarked)
Result: 13-14 mmHg

* * *

assay: Vapor pressure of the perfluorochemical; conditions: 38° C.
Vapor pressure overview

Recorded results for 2 compounds are shown here.
• FC(F)(F)N(C(F)(F)C(F)(F)F)C(F)(F)C(F)(C(F)(F)F)C(F)(F)C(F)(C(F)(F)F)C(F)(F)F (stereo not drawn) = 12-13 mmHg
• FC(F)(F)C(F)(F)OC(F)(F)C(F)(C(F)(F)F)C(F)(OC(F)(F)C(F)(F)F)C(F)(F)C(F)(F)F (stereo not drawn) = 13-14 mmHg

Problem: Name the reported Vapor pressure value associated with the compound FC(F)(F)N(C(F)(F)F)C(C(F)(F)F)(C(F)(F)F)C(F)(F)C(F)(F)C(F)(F)F
Result: 37-38 mmHg

Problem: Name the reported Vapor pressure value associated with the compound FC(F)(F)C(F)(F)C(F)(F)OC(C(F)(F)F)(C(F)(F)F)C(F)(F)C(F)(F)C(F)(F)F
Result: 33 mmHg

Problem: Name the reported Vapor pressure value associated with the compound FC(F)(F)C(F)(F)C(F)(F)OC(F)(C(F)(C(F)(F)F)C(F)(F)F)C(F)(C(F)(F)F)C(F)(F)F
Result: 16-17 mmHg

Problem: Name the reported Vapor pressure value associated with the compound FC(F)(F)C(F)(F)C(F)(F)C(F)(F)C(F)(F)C(F)(F)C(F)(F)OC(F)(C(F)(F)F)C(F)(F)C(F)(F)F (stereo not drawn)
Result: 9-10 mmHg

Problem: Name the reported Vapor pressure value associated with the compound FC(F)(F)C(F)(F)N(C(F)(F)C(F)(F)F)C(F)(F)C(F)(C(F)(F)F)C(F)(F)C(F)(F)C(F)(F)F (stereo not drawn)
Result: 8-9 mmHg

* * *

test: Vapor pressure of the perfluorochemical; conditions: 38° C.
MEASURE: Vapor pressure

• FC(F)(F)N(C(F)(F)C(F)(F)F)C(F)(F)C(F)(C(F)(F)F)C(F)(F)C(F)(F)C(F)(F)F (stereo not drawn) = 21 mmHg
• FC(F)(F)C(F)(F)OC(OC(F)(F)C(F)(F)C(F)(F)C(F)(F)C(F)(F)F)(C(F)(F)F)C(F)(F)F = 13-14 mmHg
• FC(F)(F)C(F)(F)C(F)(F)OC(OC(F)(F)C(F)(F)C(F)(F)F)(C(F)(F)F)C(F)(F)F = 29-30 mmHg

Problem: Name the reported Vapor pressure value associated with the molecule FC(F)(F)OC(F)(C(F)(F)F)C(F)(F)C(C(F)(F)F)(C(F)(F)C(F)(F)F)C(F)(F)C(F)(F)F (stereo not drawn)
Result: 17-18 mmHg

Problem: Name the reported Vapor pressure value associated with the molecule FC(F)(F)C(F)(F)C(F)(F)C(OC(F)(C(F)(F)F)C(F)(F)F)(C(F)(F)F)C(F)(F)F
Result: 29-30 mmHg

* * *

assay: Vapor pressure of the perfluorochemical; details: 38° C.
Vapor pressure overview

• FC(F)(F)C(F)(F)C(F)(F)OC(F)(F)C(F)(F)C(F)(F)C(F)(F)C(F)(F)C(F)(F)C(F)(F)F [Example 18, Perfluoro-1-n-propoxyheptane] = 15-16 mmHg

Proceeding to the next compound to report its Vapor pressure.
Problem: Name the reported Vapor pressure value associated with the compound FC(F)(F)C(F)(F)C(F)(F)C(F)(F)OC(C(F)(F)F)(C(F)(F)F)C(F)(F)C(F)(F)C(F)(F)F [Ex. 14, Perfluoro-2-n-butoxy-2-methylpentane]
Result: 13-14 mmHg

* * *

assay: Vapor pressure of the perfluorochemical; conditions: 38° C.
Vapor pressure overview

* FC(F)(F)C(F)(F)C(F)(F)C(OC(F)(C(F)(F)F)C(F)(F)C(F)(F)F)(C(F)(F)F)C(F)(F)F (stereo not shown) [Ex. 16, Perfluoro-2-sec-butoxy-2-methylpentane] | 15-16 mmHg

Problem: Name the reported Vapor pressure value associated with the molecule FC(F)(F)C(F)(F)OC(F)(C(F)(F)F)C(F)(F)C(C(F)(F)F)(C(F)(F)C(F)(F)F)C(F)(F)C(F)(F)F (stereo not shown) [Example 25]
Result: 8-9 mmHg

Problem: Name the reported Vapor pressure value associated with the molecule FC(F)(F)N(C(F)(F)F)C(F)(F)C(C(F)(F)F)(C(F)(F)F)C(F)(F)C(F)(F)C(F)(F)F [Example 41]
Result: 18-19 mmHg

Problem: Name the reported Vapor pressure value associated with the molecule FC(F)(F)C(F)(F)N(C(F)(F)C(F)(F)F)C(F)(C(F)(F)C(F)(F)F)C(F)(C(F)(F)F)C(F)(F)F (stereo not shown) [Example 43, perfluoro-3-diethylamino-2-methylpentane]
Result: 9-10 mmHg

* * *

experiment: Vapor pressure of the perfluorochemical; settings: 38° C.
MEASURE: Vapor pressure

Recorded results for 2 compounds are shown here.
* FC(F)(F)C(F)(F)OC(F)(F)C(F)(F)C(F)(F)C(F)(F)C(F)(F)C(F)(F)C(F)(F)F | 33 mmHg
* FC(F)(F)C(F)(F)C(F)(F)C(F)(F)OC(F)(C(F)(C(F)(F)F)C(F)(F)F)C(F)(C(F)(F)F)C(F)(F)F | 8-9 mmHg

Problem: Name the reported Vapor pressure value associated with the compound FC(F)(F)N(C(F)(F)F)C(F)(C(F)(F)C(F)(F)F)C(F)(C(F)(F)F)C(F)(F)F (stereo not drawn)
Result: 37-38 mmHg
